- Test system: S. Typhi PhoP-promoter GFP reporter, fluorescence, 4 h
- TEST_METHOD_NOTES: PhoP regulon inhibitor project modified counter assay, GFP fluorescence readout, dose response (AID 1985)
# IC50 annotations

Examples with their reported IC50 follow.
COMPOUND	MEASURED_ON	IC50
C/C(=N\NC(=O)c1ccc(Cl)cc1)c1ccccn1	S. Typhi PhoP-promoter GFP reporter, fluorescence, 4 h	48.3 µM
O=C(C[n+]1cc(Br)cc2ccccc21)c1ccc(Cl)cc1	S. Typhi PhoP-promoter GFP reporter, fluorescence, 4 h	57.8 µM
O=C1C(O)=C(O)C(=O)c2ccccc21	S. Typhi PhoP-promoter GFP reporter, fluorescence, 4 h	88.8 µM
OCCNc1nc(Nc2ccccc2)nc2ccccc12	S. Typhi PhoP-promoter GFP reporter, fluorescence, 4 h	35.2 µM
Fc1ccc(CCNCc2ccc(Cl)c(Cl)c2)cc1	S. Typhi PhoP-promoter GFP reporter, fluorescence, 4 h	68.4 µM

Entry O=C(CSc1ccccn1)N/N=C/c1cc([N+](=O)[O-])ccc1O — recorded IC50 = 35.6 µM

Entry CN(C)c1ccc(O)c2c1CC1CC3[C@@H](N(C)C)C(=O)C(C(N)=O)=C(O)[C@]3(O)C(=O)C1=C2O (stereo not given in full) — recorded IC50 = 5.1 µM

Entry CCCCOc1ccc(OCCNC(=O)c2ccco2)cc1 — recorded IC50 = 65.4 µM

Entry Cc1cc(NS(=O)(=O)c2ccc(NC(=S)NC(=O)c3cccnc3)cc2)no1 — recorded IC50 = 126 µM

Entry OC(CNCc1ccco1)Cn1c2ccc(Br)cc2c2cc(Br)ccc21 (stereo not given) — recorded IC50 = 28 µM

Entry O=C(NC(=S)NNC(=O)c1cnccn1)c1ccc(F)cc1 — recorded IC50 = 25.1 µM

Entry Cc1ccc(C(=O)N/N=C\c2ccc([N+](=O)[O-])s2)cn1 — recorded IC50 = 20 µM

Entry NC1CCN(c2nc3c(cc2F)c(=O)c(C(=O)O)cn3-c2ccc(F)cc2F)C1 (stereo not given) — recorded IC50 = < 0.23 µM

Entry C=CCNc1ncnc2c1[nH]c1ccc(C)cc12 — recorded IC50 = 56.3 µM

Entry O=C(Nc1nnc(-c2ccco2)o1)c1cccc(Cl)c1 — recorded IC50 = 40 µM

---

- Tested on: S. Typhi PhoP-promoter GFP reporter, fluorescence, 4 h
- TEST_METHOD_NOTES: PhoP regulon inhibitor project modified counter assay, GFP fluorescence readout, dose response (AID 1985)
QUANTITY_MEASURED: IC50

Examples with their reported IC50 follow.
COMPOUND	RESULT
Nn1cnnc1N/N=C\c1ccc(-c2ccccc2[N+](=O)[O-])o1	29 µM
CCN1CCCC1CNC(=O)C1CCN(Cc2nc(-c3cccc(Br)c3)oc2C)CC1 (stereo unspecified)	143 µM
COc1ccc(-c2cnc(NCc3cc4c(cc3[N+](=O)[O-])OCO4)n2C)cc1	107 µM
OC(CNCCc1ccc(Cl)cc1Cl)COc1ccccc1 (stereo unspecified)	71.7 µM
Cc1ccc(-c2csc(N=C(N)N)n2)c(C)c1	64.8 µM
COc1ccc(CNc2ncnc3c2[nH]c2ccccc23)cc1	59.2 µM

Entry COc1c2ccccc2nc2ccccc12 — recorded IC50 = 28.8 µM

Entry CCCCn1c(NS(=O)(=O)c2ccccc2)c(S(=O)(=O)c2ccc(C)cc2)c2nc3ccccc3nc21 — recorded IC50 = 114 µM
